From: ChEMBL document CHEMBL1127438

Some molecules, each annotated with its measured pKi.
target: D(2) dopamine receptor (Rattus norvegicus, UniProt P61169); experiment: Tested for affinity against striatal dopamine autoreceptor (DA) D2 receptors using [3H]spiperone as radioligand in rats.
Sequence (P61169 whole entry): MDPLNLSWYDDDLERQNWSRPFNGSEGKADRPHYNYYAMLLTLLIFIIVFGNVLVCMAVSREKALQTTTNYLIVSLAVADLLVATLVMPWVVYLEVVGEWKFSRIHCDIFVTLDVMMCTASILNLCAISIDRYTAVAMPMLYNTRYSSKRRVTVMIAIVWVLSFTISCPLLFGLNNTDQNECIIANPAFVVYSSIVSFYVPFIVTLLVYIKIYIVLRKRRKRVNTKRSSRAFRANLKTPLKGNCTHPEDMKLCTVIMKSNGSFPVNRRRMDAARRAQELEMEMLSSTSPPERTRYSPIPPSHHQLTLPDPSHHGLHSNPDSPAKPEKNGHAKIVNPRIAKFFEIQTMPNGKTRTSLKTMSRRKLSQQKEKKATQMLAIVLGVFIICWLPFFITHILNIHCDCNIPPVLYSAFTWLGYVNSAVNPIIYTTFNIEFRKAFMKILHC
Quick note: pKi values are minus log10 of concentrations in mol/L.

// known answers, use as guide
molecule="CCCN1CCC2c3cccc(OS(=O)(=O)C(F)(F)F)c3CCC21 (stereo unspecified)" recorded_measurement=7.09
molecule=CN1CCC[C@@H](c2cccc(OS(=O)(=O)C(F)(F)F)c2)C1 recorded_measurement=4.93

I looked up CCCN1CCC[C@@H](c2ccc(OS(=O)(=O)C(F)(F)F)cc2)C1 and its pKi for D(2) dopamine receptor (Rattus norvegicus, UniProt P61169) was 4.93

I looked up CCN1CCC[C@@H](c2cccc(OS(=O)(=O)C(F)(F)F)c2)C1 and its pKi for D(2) dopamine receptor (Rattus norvegicus, UniProt P61169) was 5.93

I looked up C#Cc1cccc([C@@H]2CCCN(CCC)C2)c1 and its pKi for D(2) dopamine receptor (Rattus norvegicus, UniProt P61169) was 6.15

----------
Some compounds, each annotated with its measured pKi.
molecular target: UniProt:P35462; test: Tested for in vitro binding affinity against cloned mammalian dopamine D3 receptor, expressed in CHO-K1 cells, using [3H]spiperone as radioligand; format: cell-based
Quick note: pKi values are minus log10 of concentrations in mol/L.

// known answers, use as guide
compound=CCCN1CCC[C@@H](c2cccc(-c3ccsc3)c2)C1 system_name=UniProt:P35462 quantity_kind=pKi recorded_measurement=7.11
compound="CCC(C)N1CCC[C@@H](c2cccc(C#N)c2)C1 (stereo partly specified)" system_name=UniProt:P35462 quantity_kind=pKi recorded_measurement=6.98
compound=CCN1CCC[C@@H](c2cccc(C#N)c2)C1 system_name=UniProt:P35462 quantity_kind=pKi recorded_measurement=6.29
compound=CCCN1CCC[C@@H](c2cccc(CO)c2)C1 system_name=UniProt:P35462 quantity_kind=pKi recorded_measurement=5.84

Next compound, please.
Quick note, pKi for CCCN1CCC[C@@H](c2cccc(OS(C)(=O)=O)c2)C1 landed at 6.01

----------
target: D(3) dopamine receptor (Homo sapiens, UniProt P35462); assay: Tested for in vitro binding affinity against cloned mammalian dopamine autoreceptor (DA) receptors expressed in CHO-K1 cells [3H]-spiperone as radioligand; type: cell-based
Sequence (P35462 whole entry): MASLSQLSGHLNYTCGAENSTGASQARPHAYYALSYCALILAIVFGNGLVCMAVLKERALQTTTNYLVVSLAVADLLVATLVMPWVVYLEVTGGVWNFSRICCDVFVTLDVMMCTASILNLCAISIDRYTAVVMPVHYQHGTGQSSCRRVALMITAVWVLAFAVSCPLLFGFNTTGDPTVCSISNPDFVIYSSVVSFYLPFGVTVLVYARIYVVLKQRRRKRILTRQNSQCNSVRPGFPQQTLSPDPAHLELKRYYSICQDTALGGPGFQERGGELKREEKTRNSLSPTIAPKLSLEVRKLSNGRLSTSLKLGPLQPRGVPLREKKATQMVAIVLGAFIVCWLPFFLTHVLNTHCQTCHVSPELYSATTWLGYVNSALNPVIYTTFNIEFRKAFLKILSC
Some molecules, each annotated with its measured Ki.
Please reply with the bare figure in nM and do not write the unit itself.

// known answers, use as guide
molecule=CCCN1CCC[C@@H](c2cccc(SC)c2)C1 recorded_measurement=139
molecule=CCCN1CCC[C@@H](c2ccc(OS(=O)(=O)C(F)(F)F)c(OS(=O)(=O)C(F)(F)F)c2)C1 recorded_measurement=338
molecule="C=CCN1CCC2c3cccc(OS(=O)(=O)C(F)(F)F)c3CCC21 (configuration not stated)" recorded_measurement=67
molecule="C=CCN1CC[C@@H]2c3cccc(OS(=O)(=O)C(F)(F)F)c3CC[C@@H]21 (stereo in doubt; 49)" recorded_measurement=173
molecule="CCCN1CCCC2c3cccc(OS(=O)(=O)C(F)(F)F)c3CCC21 (stereo in doubt; 45)" recorded_measurement=587

Next molecule, please.
Quick note, Ki for CCCN1CCC[C@@H](c2cccc(Br)c2)C1 landed at 171

----------
target: D(3) dopamine receptor (Rattus norvegicus, UniProt P19020); assay: Tested for in vitro binding affinity against cloned mammalian dopamine autoreceptor, expressed in CHO-K1 cells, using [3H]spiperone as radioligand; assay type: cell-based
Sequence (P19020 whole entry): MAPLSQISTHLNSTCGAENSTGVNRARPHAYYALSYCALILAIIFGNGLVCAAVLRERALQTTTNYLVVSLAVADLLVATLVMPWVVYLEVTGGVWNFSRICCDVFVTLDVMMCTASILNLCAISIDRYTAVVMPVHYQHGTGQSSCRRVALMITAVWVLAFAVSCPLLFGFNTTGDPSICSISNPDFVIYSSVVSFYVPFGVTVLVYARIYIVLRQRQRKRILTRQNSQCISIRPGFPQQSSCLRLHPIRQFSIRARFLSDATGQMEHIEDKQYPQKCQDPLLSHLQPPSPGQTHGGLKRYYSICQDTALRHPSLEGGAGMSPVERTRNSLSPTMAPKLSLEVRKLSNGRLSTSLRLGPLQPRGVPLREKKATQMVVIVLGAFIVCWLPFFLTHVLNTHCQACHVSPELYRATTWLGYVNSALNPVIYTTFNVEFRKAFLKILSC
quantity kind: pKi
Quick note: pKi values are minus log10 of concentrations in mol/L.

Quick note, pKi for CCCN1CCC[C@@H](c2cccc(OC)c2)C1 landed at 5.88

----------
molecular target: D(3) dopamine receptor (Homo sapiens, UniProt P35462); test: Tested for in vitro binding affinity against cloned mammalian dopamine D3 receptor, expressed in CHO-K1 cells, using [3H]spiperone as radioligand; format: cell-based
Some compounds, each annotated with its measured Ki.
Please reply with the bare figure in µM and do not write the unit itself.

smiles_text=CCCN1CCC[C@@H](c2cccc(OCC(F)(F)F)c2)C1 recorded_measurement=1.41

Quick note, Ki for N#Cc1cccc([C@@H]2CCCN(CC3CC3)C2)c1 landed at 0.522

Quick note, Ki for CCCN1CCC[C@@H](c2cccc(S(C)(=O)=O)c2)C1 landed at 1.3

Quick note, Ki for CN1CCC[C@@H](c2cccc(C#N)c2)C1 landed at 1.76

Quick note, Ki for CCCN1CCC[C@@H](c2cccc(S(=O)(=O)N(C)C)c2)C1 landed at 0.17

Quick note, Ki for CCCN1CCC[C@@H](c2cccc(C#N)c2)C1 landed at 0.249

Quick note, Ki for N#Cc1cccc([C@@H]2CCCN(CCCc3ccccc3)C2)c1 landed at 0.036

Quick note, Ki for CC(C)N1CCC[C@@H](c2cccc(C#N)c2)C1 landed at 0.268

Quick note, Ki for CCCN1CCC[C@@H](c2cccc(CC#N)c2)C1 landed at 0.509

----------
system: Rattus norvegicus; assay: Tested in vivo for its ability to displace DA receptor agonist (Di-Pr-5,6-ADTN) from rat striatal binding sites at 0.25 uM/Kg sc. dose (after subtraction of cerebellum levels); type: functional
Some compounds, each annotated with its measured Control.
Please reply with the bare figure in % and do not write the unit itself.

compound=CCCN1CCC[C@@H](c2cccc(C(C)=O)c2)C1 recorded_measurement=44
compound="CCC(C)N1CCC[C@@H](c2cccc(C#N)c2)C1 (stereo partly specified)" recorded_measurement=59
compound=C=CCN1CCC[C@@H](c2cccc(C#N)c2)C1 recorded_measurement=59
compound=CCCN1CCC[C@@H](c2cccc(C#N)c2)C1 recorded_measurement=66
compound=CCCN1CCC[C@@H](c2cccc(OS(C)(=O)=O)c2)C1 recorded_measurement=55

Quick note, Control for CCCN1CCC[C@@H](c2cccc(S(C)(=O)=O)c2)C1 landed at 45

----------
target: D(2) dopamine receptor (Homo sapiens, UniProt P14416); conditions: cho-k1
Sequence (P14416 whole entry): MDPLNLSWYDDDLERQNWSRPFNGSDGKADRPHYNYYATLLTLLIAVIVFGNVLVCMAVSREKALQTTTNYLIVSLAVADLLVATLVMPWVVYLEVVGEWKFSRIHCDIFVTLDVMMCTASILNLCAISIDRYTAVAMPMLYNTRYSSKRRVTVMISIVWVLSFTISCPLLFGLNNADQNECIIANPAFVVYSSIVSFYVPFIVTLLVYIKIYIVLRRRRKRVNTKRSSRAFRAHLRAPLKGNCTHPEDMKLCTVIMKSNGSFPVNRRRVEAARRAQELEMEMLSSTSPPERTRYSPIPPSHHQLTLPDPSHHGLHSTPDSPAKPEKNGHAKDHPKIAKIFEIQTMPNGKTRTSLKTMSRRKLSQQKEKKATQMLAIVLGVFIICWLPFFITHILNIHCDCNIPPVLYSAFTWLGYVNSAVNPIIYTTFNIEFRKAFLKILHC
Description: Affinity against recombinant dopamine receptor (DA) D2 expressed in CHO-K1 cells, using [3H]-spiperone as radioligand
pKi: −log10 of the molar value.
quantity kind: pKi

I looked up C=CCN1CC[C@@H]2c3cccc(OS(=O)(=O)C(F)(F)F)c3CC[C@@H]21 (stereo in doubt; 50) and its pKi for D(2) dopamine receptor (Homo sapiens, UniProt P14416) was < 6.66

----------
molecular target: D(2) dopamine receptor (Homo sapiens, UniProt P14416); test: biochemical
Description: Affinity against recombinant dopamine receptor (DA) D2 expressed in CHO-K1 cells, using [3H]-spiperone as radioligand
pKi: −log10 of the molar value.
quantity kind: pKi

// known answers, use as guide
compound=CN1CCC[C@@H](c2cccc(C#N)c2)C1 recorded_measurement="< 6.66"
compound=N#Cc1cccc([C@@H]2CCCNC2)c1 recorded_measurement="< 6.66"
compound=CCCN1CCC[C@@H](c2ccccc2OS(=O)(=O)C(F)(F)F)C1 recorded_measurement="< 6.66"
compound="C=CCN1CCC2c3cccc(C(N)=O)c3CCC21 (centres undefined)" recorded_measurement="< 6.66"
compound=CCCN1CCC[C@@H](c2ccc(OS(=O)(=O)C(F)(F)F)c(OS(=O)(=O)C(F)(F)F)c2)C1 recorded_measurement="< 6.66"
compound=CCCc1cccc([C@@H]2CCCN(CCC)C2)c1 recorded_measurement="< 6.66"

Quick note, pKi for CCCN1CCC[C@@H](c2cccc(CC#N)c2)C1 landed at < 6.66

Quick note, pKi for CCCN1CCC[C@@H](c2cccc(C#N)c2)C1 landed at 6.58

Quick note, pKi for CC(C)N1CCC[C@@H](c2cccc(C#N)c2)C1 landed at < 6.66

Quick note, pKi for CCC(C)N1CCC[C@@H](c2cccc(C#N)c2)C1 (some centres undefined) landed at 7.01

Quick note, pKi for CCCN1CCC[C@@H](c2cccc(C(N)=O)c2)C1 landed at < 6.66

----------
tested on: Rattus norvegicus; test: Evaluated for locomotor activity in nonpretreated habituated rats in 100 umol/kg of subcuteneous dose; assay type: functional; set-up: unit not given here
quantity kind: LMA
Hey, just send me the number, nothing else.

molecule="CCCN1CCC2c3cccc(OS(=O)(=O)C(F)(F)F)c3CCC21 (stereo not drawn)" recorded_measurement=687
molecule=CCCN1CCC[C@@H](c2ccc(OS(=O)(=O)C(F)(F)F)c(OS(=O)(=O)C(F)(F)F)c2)C1 recorded_measurement=36

Next molecule, please.
Quick note, LMA for O=S(=O)(Oc1cccc([C@@H]2CCCN(CCc3ccccc3)C2)c1)C(F)(F)F landed at 20

----------
What follows is a record of Ki for D(2) dopamine receptor (Rattus norvegicus, UniProt P61169).
Please reply with the bare figure in nM and do not write the unit itself.

compound=CCCN1CCC[C@@H](c2cccc(OCC(F)(F)F)c2)C1 recorded_measurement=1670
compound=CCCCN1CCC[C@@H](c2cccc(C#N)c2)C1 recorded_measurement=617
compound=CCCN1CCC[C@@H](c2cccc(OC)c2)C1 recorded_measurement=3440
compound=CCCN1CCC[C@@H](c2cccc(C#N)c2)C1 recorded_measurement=1140
compound=CN1CCC[C@@H](c2cccc(C#N)c2)C1 recorded_measurement=8330
compound="CCC(C)N1CCC[C@@H](c2cccc(C#N)c2)C1 (some centres not stated)" recorded_measurement=1050
compound=N#Cc1cccc([C@@H]2CCCN(CCCc3ccccc3)C2)c1 recorded_measurement=80
compound=CCCN1CCC[C@@H](c2cccc(OS(C)(=O)=O)c2)C1 recorded_measurement=4170

I looked up N#Cc1cccc([C@@H]2CCCN(CCc3ccccc3)C2)c1 and its Ki for D(2) dopamine receptor (Rattus norvegicus, UniProt P61169) was 105

I looked up C=CCN1CCC[C@@H](c2cccc(C#N)c2)C1 and its Ki for D(2) dopamine receptor (Rattus norvegicus, UniProt P61169) was 1890
